Assay method text: Cytotoxicity CC50 in Huh7.5 cells
Type: cell-based
Condition details: human, Huh7.5 cells

| Compound | CC50 |
| --- | --- |
| COc1ccc(-c2sc(NC(C)=O)nc2C)cc1S(=O)(=O)Nc1ccc(CC#N)cc1 [PT414] | > 20 µM |
| CC(=O)Nc1nc(C)c(-c2ccc(Cl)c(S(=O)(=O)NCCc3ccc(O)cc3)c2)s1 [PT47] | > 5 µM |
| CC(=O)Nc1nc(C)c(-c2ccc(Br)c(S(=O)(=O)Nc3ccc(CC#N)cc3)c2)s1 [PT416] | > 20 µM |
| CC(=O)Nc1nc(C)c(-c2ccc(Cl)c(S(=O)(=O)Nc3ccccc3)c2)s1 [PT418] | 3.9 µM |

---

Test system: HCV genotype 2a
Assay method text: microbe, parasite or virus in culture
Type: cell-based
Condition details: Hepatitis C virus, Huh7.5, HCV genotype 2a in Huh7.5 cells, luciferase reporter assay; read-out: 2a EC50
Result type: EC50

| Compound | Value measured |
| --- | --- |
| COc1ccc(-c2sc(NC(=O)C3CCCC3)nc2C)cc1S(=O)(=O)NC1CCCNC1 (stereo not drawn) [AB4179] | > 1000 nM |
| COc1ccccc1NS(=O)(=O)c1cc(-c2sc(NC3CCCCC3)nc2C)ccc1OC [AB4025] | 200 to 1000 nM |
| COc1ccc(-c2sc(NC3CCCCC3)nc2C)cc1S(=O)(=O)Nc1ccc(C)cc1 [AB4106] | 200 to 1000 nM |
| COc1ccc(-c2sc(NC3CCCCC3)nc2C)cc1S(=O)(=O)Nc1cnc(OC)c(C)c1 [AB3948] | 200 to 1000 nM |
| COc1ccc(-c2sc(CC3CCCCC3)nc2C)cc1S(=O)(=O)Nc1ccc(Cl)c(F)c1 [AB4242] | 200 to 1000 nM |
| COc1ccccc1NS(=O)(=O)c1cc(-c2sc(NC(=O)C3CCCC3)nc2C)ccc1OC [AB4051] | 200 to 1000 nM |
| COc1ccc(-c2sc(NC3CCCCC3)nc2C)cc1S(=O)(=O)Nc1ccc(O)cc1 [AB3867] | 200 to 1000 nM |
| COc1cc(C)c(NS(=O)(=O)c2cc(-c3sc(NC(=O)C4CCCC4)nc3C)ccc2OC)cn1.O=C(O)C(F)(F)F [AB3663] | < 200 nM |
| COc1ccc(-c2sc(NC(=O)C3CCCC3)nc2C)cc1S(=O)(=O)Nc1ccc(Cl)cc1 [AB4185] | > 1000 nM |
| COc1ccc(-c2sc(NC(=O)C3CCCC3)nc2C)cc1S(=O)(=O)Nc1cnc(Cl)c(C)c1.O=C(O)C(F)(F)F [AB3862] | 200 to 1000 nM |
| COc1ccc(-c2sc(NC(=O)CC3CCCC3)nc2C)cc1S(=O)(=O)Nc1cnc(F)cc1C [AB4111] | 200 to 1000 nM |
| COc1ccc(-c2sc(NC3CCCCC3)nc2C)cc1S(=O)(=O)Nc1cnc(F)cc1C [AB4052] | < 200 nM |
| COc1ccc(-c2sc(NC(=O)CC3CCCCC3)nc2C)cc1S(=O)(=O)Nc1ccc(O)cc1 [AB3680] | > 1000 nM |
| COc1ccc(-c2sc(NC(=O)C3CCCC3)nc2C)cc1S(=O)(=O)Nc1cnc(F)cc1C [AB3664] | 200 to 1000 nM |
| COc1ccc(-c2sc(NC(C)C)nc2C)cc1S(=O)(=O)Nc1cnc(Cl)c(C)c1 [AB3977] | 200 to 1000 nM |
| COc1ccc(-c2sc(CC3CCCCC3)nc2C)cc1S(=O)(=O)Nc1ccc(Cl)c(C)c1 [AB4243] | 200 to 1000 nM |
| COc1ccc(-c2sc(NCC3CCCCC3)nc2C)cc1S(=O)(=O)Nc1cnc(Cl)c(C)c1 [AB4226] | 200 to 1000 nM |
| COc1ccc(-c2sc(NC(=O)CC3CCCCC3)nc2C)cc1S(=O)(=O)Nc1cccc(O)c1 [AB3826] | < 200 nM |
| COc1ccc(-c2sc(NC(C)C)nc2C)cc1S(=O)(=O)Nc1ccc(O)cc1 [AB3913] | > 1000 nM |
| COc1ccc(-c2sc(NC3CCCCCC3)nc2C)cc1S(=O)(=O)Nc1cccc(O)c1 [AB4139] | 200 to 1000 nM |
| COc1ccc(-c2sc(NCC3CCCCC3)nc2C)cc1S(=O)(=O)Nc1cnc(Cl)c(F)c1 [AB4229] | > 1000 nM |
